Assay: Lipophilicity (logD7.4), n-octanol/PBS pH 7.4
Type: physicochemical
Conditions: n-octanol/PBS pH 7.4; read-out: logD7.4
METRIC: logD

Query: logD; subject: CCCC[C@H](NC(=O)[C@H](Cc1c[nH]c2ccccc12)NC(=O)CNC(=O)[C@H](Cc1ccc(O)cc1)NC(=O)[C@H](C)NC(=O)[C@@H](CCC(=O)O)NC(=O)[C@@H](CCC(=O)O)NC(=O)[C@@H](CCC(=O)O)NC(=O)[C@@H](CCC(=O)O)NC(=O)[C@@H](CCC(=O)O)NC(=O)[C@@H](CCC(=O)O)NC(=O)CN1CCN(CC(=O)O)CCN(CC(=O)O)CCN(CC(=O)O)CC1)C(=O)N[C@@H](CC(=O)O)C(=O)N[C@@H](Cc1ccccc1)C(N)=O [[^177Lu]Lu-DOTA-PP-F11N, metal not drawn] < -4

----------
Assay: Lipophilicity (logD7.4), n-octanol/PBS pH 7.4
Assay type: physicochemical
Settings: pH 7.4
METRIC: logD
Answers are plain numbers.

Query: logD; subject: CCCC[C@H](NC(=O)[C@H](Cc1c[nH]c2ccccc12)NC(=O)CNC(=O)[C@H](Cc1ccc(O)cc1)NC(=O)[C@H](C)NC(=O)[C@@H](CCC(=O)O)NC(=O)[C@@H](CCC(=O)O)NC(=O)[C@@H](CCC(=O)O)NC(=O)[C@@H](CCC(=O)O)NC(=O)[C@@H](CCC(=O)O)NC(=O)[C@@H](CCC(=O)O)NC(=O)CC[C@H](C(=O)O)N1CCN(CC(=O)O)CCN(CC(=O)O)CCN(CC(=O)O)CC1)C(=O)N[C@@H](CC(=O)O)C(=O)N[C@@H](Cc1ccccc1)C(N)=O [[^177Lu]Lu-(R)-DOTAGA-PP-F11N, metal not drawn] -3.95
